Every entry's value here was drawn from patent US20240059691A1.

So I've got a bunch of molecules here, and I need their pIC50 values.
Target: Plasma Kallikrein (Homo sapiens (Human), UniProt P03952)
Sequence (P03952 391-638): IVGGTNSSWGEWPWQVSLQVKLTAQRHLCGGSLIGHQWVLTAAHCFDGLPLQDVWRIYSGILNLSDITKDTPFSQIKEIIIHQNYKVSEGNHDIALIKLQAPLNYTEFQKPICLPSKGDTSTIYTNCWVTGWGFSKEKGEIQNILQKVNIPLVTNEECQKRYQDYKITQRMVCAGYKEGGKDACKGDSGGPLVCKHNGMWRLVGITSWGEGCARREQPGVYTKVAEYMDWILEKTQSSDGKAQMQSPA
Sequence (P03952 20-390 partner): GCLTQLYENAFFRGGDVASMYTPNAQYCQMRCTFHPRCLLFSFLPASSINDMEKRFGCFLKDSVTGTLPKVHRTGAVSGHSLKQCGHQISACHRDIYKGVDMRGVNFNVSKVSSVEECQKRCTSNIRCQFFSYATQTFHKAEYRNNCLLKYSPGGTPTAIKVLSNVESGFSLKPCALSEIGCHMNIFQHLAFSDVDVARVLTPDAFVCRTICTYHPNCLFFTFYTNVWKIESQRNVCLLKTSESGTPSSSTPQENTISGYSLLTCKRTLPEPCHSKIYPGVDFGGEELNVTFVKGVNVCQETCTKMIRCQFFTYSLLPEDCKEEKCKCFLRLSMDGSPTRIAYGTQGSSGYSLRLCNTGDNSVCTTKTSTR
Test: Determination of related protease inhibition: Plasma Kallikrein (fluorogenic substrate at Km)
Conditions: 25° C., read-out: IC50 (human PKal)
pIC50: −log10 of the molar value.

query: Find the recorded pIC50 belonging to "Nc1nccc2c(NCc3ccc(N4CCn5nccc5C4)nc3)cccc12" and report it.
result: < 4.40

I have 4 molecules here; please give me pIC50 for each one.
1. CN1CCC(CNc2ccc(CNc3ccc4cncc(Cl)c4c3)cn2)CC1
2. Cn1ccnc1CCOCc1ccc(CNc2cccc3c(N)nccc23)c(F)c1
3. CC(C)N1C[C@@H]2C[C@H]1CN2CCc1ccc(CNc2cccc3c(N)nccc23)c(F)c1 (stereo in doubt)
4. CC(C)(O)C1CN(c2ccc(CNc3cccc4c(N)nccc34)cn2)Cc2nccn21 (stereo not shown)

result:
1: < 4.00; 2: < 4.40; 3: 5.00 to 5.52; 4: < 4.40

###

Molecular target: Plasma Kallikrein (Homo sapiens (Human))
Assay: Determination of related protease inhibition: Plasma Kallikrein (fluorogenic substrate at Km)
Details: 25° C., read-out: IC50 (human PKal)
pIC50: −log10 of the molar value.
Please respond with reported pIC50 for every item in the list.

Here's what some known entries look like.
query: Using the record for CN1CCC(Oc2ccc(CNc3cnc4[nH]cc(Cl)c4c3)cc2)CC1 [Example 1004] , report its pIC50.
result: < 4.40

query: Same thing, different compound: Cc1n[nH]c2c1CCC2Nc1ccc(CNc2ccc3c(N)ncc(Cl)c3c2)cn1 (stereo not shown) [Example 1118]
result: < 4.40

query: Cool, now CCN1CCC(OCc2ccc(CNc3cccc4c(N)nccc34)c(F)c2)CC1 [Example 2201]
result: 4.40 to 5.00

New cases:
query: Query (compound): Nc1nccc2c(NCc3ccc(CN4CCOCC4)cc3F)cccc12 [Example 1034] ; field requested: pIC50
result: < 4.40

###

Kindly supply the reported IC50 values for the records listed here.
Target: Plasma Kallikrein (Homo sapiens (Human), UniProt P03952)
Assay: Determination of related protease inhibition: Plasma Kallikrein (fluorogenic substrate at Km)
Conditions: 25° C., read-out: IC50 (human PKal)

These solved cases illustrate the format of a correct answer.
query: Item under review: CN1CCC(COc2cc(CNc3ccnc4c(N)nccc34)ccn2)CC1 [Example 4272] . Reported IC50?
result: > 40 µM

query: One more compound: CN1CCC(COc2cc(CNc3ccnc4[nH]ccc34)ccn2)CC1 [Example 4459]
result: > 100 µM

query: Another compound to look at: Nc1nccc2cc(NCc3ccc(COC4CCN(C5CC5)CC4)cc3)ccc12 [Example 2195]
result: 3 to 10 µM

query: Moving on to the next compound: CC(C)(O)[C@H]1CCN(c2ccc(CNc3cccc4c(N)nccc34)cn2)C1 [Example 1131]
result: 10 to 40 µM

query: Follow-up item: CN1CCC(CNc2ccc(CNc3cc(C(=O)O)c4[nH]cc(Cl)c4c3)cn2)CC1 [Example 1204]
result: > 100 µM

Each compound below has a reported value. Please supply its IC50.
1. Cn1c(COc2cc(CNc3cccc4c(N)nccc34)ccn2)nnc1C1CC1 [Example 4468]
2. CN1CCC(Oc2cc(CNc3ccc4c(N)nccc4c3)ccn2)CC1 [Example 4259]
3. Nc1nccc2cc(NCc3ccc(OCC4CCn5ccnc5C4)nc3)ccc12 (centres unmarked) [Example 1006]
4. CN1[C@@H]2COC[C@H]1CC(OCc1ccc(CNc3cccc4c(N)nccc34)c(F)c1)C2 (some centres unmarked) [Example 2254]

result:
["> 40 µM", "10 to 40 µM", "1 to 3 µM", "> 40 µM"]

Batch: IC50 for all items listed.
1. CN1CCC(Oc2ccc(CNc3ccc4ccnc(N)c4c3)cc2)CC1 [Example 1003]
2. CN1CCC(OCc2ccc(CNc3ccc4c(N)nccc4c3)c(Cl)c2)CC1 [Example 2192]
3. CC(C)N1CCC(OCc2ccc(CNc3ccc4c(N)nccc4c3)c(F)c2)CC1 [Example 2216]
4. CN1CCC(CNc2ccc(CNc3ccnc4[nH]c(C(=O)O)cc34)cn2)CC1 [Example 1253]

result:
["10 to 40 µM", "3 to 10 µM", "1 to 3 µM", "> 40 µM"]
